src = patent US20230257364A1

TARGET OR SYSTEM: AXL (Homo sapiens, UniProt P30530)
Sequence (P30530 26-894): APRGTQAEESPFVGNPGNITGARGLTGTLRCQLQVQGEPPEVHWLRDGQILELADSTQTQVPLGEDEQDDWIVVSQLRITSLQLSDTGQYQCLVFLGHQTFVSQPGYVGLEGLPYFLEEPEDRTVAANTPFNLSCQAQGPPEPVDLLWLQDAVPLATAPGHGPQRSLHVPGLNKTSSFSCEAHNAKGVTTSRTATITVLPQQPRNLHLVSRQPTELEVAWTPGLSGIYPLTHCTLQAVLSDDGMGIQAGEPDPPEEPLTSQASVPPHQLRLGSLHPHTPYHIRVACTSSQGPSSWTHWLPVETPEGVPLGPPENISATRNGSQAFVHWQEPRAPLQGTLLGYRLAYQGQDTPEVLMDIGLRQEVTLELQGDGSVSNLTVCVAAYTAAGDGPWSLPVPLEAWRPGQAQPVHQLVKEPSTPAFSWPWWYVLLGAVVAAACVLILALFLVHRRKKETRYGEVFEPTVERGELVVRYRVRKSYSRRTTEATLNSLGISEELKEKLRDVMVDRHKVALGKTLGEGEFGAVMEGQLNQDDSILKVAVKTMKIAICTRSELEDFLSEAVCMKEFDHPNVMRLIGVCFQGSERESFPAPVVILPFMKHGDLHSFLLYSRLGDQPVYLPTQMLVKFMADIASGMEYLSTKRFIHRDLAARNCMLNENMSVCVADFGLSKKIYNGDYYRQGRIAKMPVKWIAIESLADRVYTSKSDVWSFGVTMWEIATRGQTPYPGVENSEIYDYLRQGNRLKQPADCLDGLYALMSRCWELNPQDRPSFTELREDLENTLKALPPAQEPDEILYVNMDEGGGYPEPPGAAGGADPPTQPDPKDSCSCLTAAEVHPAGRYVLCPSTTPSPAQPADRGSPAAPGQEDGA
PROTOCOL DETAILS: Enzymatic kinase assay (ADP-GLO), AXL
Format: biochemical
STUDY CONDITIONS: 10 μM ATP, poly (Glu4, Tyr1) substrate, 60 min room temperature, luminescence
Catalogue of IC50 readings, one per entry.

Examples with their reported IC50 follow.
| CHEMICAL STRING | EXPERIMENTAL VALUE |
| --- | --- |
| COCCN1CCC(C#Cc2c(Oc3ccc(NC(=O)c4ccnn(-c5ccc(F)cc5)c4=O)cc3F)ccnc2N)CC1 | < 10 nM |
| Nc1nccc(Oc2ccc(NC(=O)c3ccnn(-c4ccc(F)cc4)c3=O)cc2F)c1C#CC(=O)N1CCOCC1 | < 100 nM |

What does the record list as IC50 for Nc1nccc(Oc2ccc(NC(=O)c3ccnn(-c4ccc(F)cc4)c3=O)cc2F)c1C#CCC1CCNCC1 ?
< 10 nM

---

Catalogue of IC50 readings, one per entry.
TARGET OR SYSTEM: AXL (Homo sapiens, UniProt P30530)
PROTOCOL DETAILS: Enzymatic kinase assay (ADP-GLO), AXL
Assay type: biochemical
STUDY CONDITIONS: 10 μM ATP, poly (Glu4, Tyr1) substrate, 60 min room temperature, luminescence

Examples with their reported IC50 follow.
| CHEMICAL STRING | IC50 |
| --- | --- |
| CC(C)(C#Cc1c(Oc2ccc(NC(=O)c3ccnn(-c4ccc(F)cc4)c3=O)cc2F)ccnc1N)N1CCOCC1 | < 10 nM |
| Nc1nccc(Oc2ccc(NC(=O)c3ccnn(-c4ccc(F)cc4)c3=O)cc2F)c1C#CCN1CCNCC1 | < 1000 nM |
| COCCN1CCC(CC#Cc2c(Oc3ccc(NC(=O)c4ccnn(-c5ccc(F)cc5)c4=O)cc3F)ccnc2N)CC1 | < 100 nM |
| CN1CCC(C#Cc2c(Oc3ccc(NC(=O)c4ccnn(-c5ccc(F)cc5)c4=O)cc3F)ccnc2N)CC1 | < 10 nM |

// switching to the query compound
What does the record list as IC50 for CN1CCN(CC#Cc2c(Oc3ccc(NC(=O)c4ccnn(-c5ccc(F)cc5)c4=O)cc3F)ccnc2N)CC1 ?
< 10 nM

---

Catalogue of IC50 readings, one per entry.
TARGET OR SYSTEM: C-MET (Homo sapiens, UniProt P08581)
Sequence (P08581 25-1390): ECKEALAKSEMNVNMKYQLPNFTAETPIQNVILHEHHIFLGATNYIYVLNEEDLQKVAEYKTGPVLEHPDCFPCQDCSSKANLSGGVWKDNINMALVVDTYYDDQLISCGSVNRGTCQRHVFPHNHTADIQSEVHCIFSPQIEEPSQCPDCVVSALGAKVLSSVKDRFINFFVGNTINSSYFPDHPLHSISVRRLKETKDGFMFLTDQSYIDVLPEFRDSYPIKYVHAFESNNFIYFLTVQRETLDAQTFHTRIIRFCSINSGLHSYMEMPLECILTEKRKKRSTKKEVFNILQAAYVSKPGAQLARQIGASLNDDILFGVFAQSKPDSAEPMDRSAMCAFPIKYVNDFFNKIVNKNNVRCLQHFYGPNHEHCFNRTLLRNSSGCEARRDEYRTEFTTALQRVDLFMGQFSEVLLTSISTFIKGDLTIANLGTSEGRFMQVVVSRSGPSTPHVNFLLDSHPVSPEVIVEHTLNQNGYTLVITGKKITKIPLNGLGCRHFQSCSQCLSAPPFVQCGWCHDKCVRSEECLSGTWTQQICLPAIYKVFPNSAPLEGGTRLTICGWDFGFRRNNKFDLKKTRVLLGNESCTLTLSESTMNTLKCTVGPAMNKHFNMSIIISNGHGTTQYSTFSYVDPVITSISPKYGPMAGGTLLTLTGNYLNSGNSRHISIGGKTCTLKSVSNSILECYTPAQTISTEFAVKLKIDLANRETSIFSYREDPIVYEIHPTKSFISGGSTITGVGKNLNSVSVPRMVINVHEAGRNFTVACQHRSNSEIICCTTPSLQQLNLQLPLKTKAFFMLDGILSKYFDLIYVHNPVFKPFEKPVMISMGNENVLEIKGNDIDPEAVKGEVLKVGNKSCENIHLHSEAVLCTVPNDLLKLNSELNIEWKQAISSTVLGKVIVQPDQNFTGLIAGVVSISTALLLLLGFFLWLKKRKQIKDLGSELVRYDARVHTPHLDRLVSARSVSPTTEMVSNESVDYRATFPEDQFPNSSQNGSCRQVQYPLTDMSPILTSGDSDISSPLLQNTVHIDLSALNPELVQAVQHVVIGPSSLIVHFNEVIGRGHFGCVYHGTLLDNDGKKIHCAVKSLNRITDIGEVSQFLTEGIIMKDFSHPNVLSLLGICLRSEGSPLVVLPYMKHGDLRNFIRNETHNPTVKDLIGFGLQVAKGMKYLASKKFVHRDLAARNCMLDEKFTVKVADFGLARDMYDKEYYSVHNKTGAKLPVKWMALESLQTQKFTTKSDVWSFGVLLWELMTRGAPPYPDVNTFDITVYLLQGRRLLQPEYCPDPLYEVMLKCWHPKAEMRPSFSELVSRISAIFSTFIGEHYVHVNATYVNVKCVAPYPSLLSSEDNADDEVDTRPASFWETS
PROTOCOL DETAILS: Enzymatic kinase assay (ADP-GLO), C-MET
Assay type: biochemical
STUDY CONDITIONS: 10 μM ATP, poly (Glu4, Tyr1) substrate, 60 min room temperature, luminescence; read-out: Enzymatic assay IC50 (nM) C-MET

Examples with their reported IC50 follow.
| CHEMICAL STRING | EXPERIMENTAL VALUE |
| --- | --- |
| COC1CCN(C(=O)C#Cc2c(Oc3ccc(NC(=O)c4ccnn(-c5ccc(F)cc5)c4=O)cc3F)ccnc2N)CC1 | < 1000 nM |
| COCCON(C)C(=O)C#Cc1c(Oc2ccc(NC(=O)c3ccnn(-c4ccc(F)cc4)c3=O)cc2F)ccnc1N | < 100 nM |

What does the record list as IC50 for Nc1nccc(Oc2ccc(NC(=O)c3ccnn(-c4ccc(F)cc4)c3=O)cc2F)c1C#CCCN1CCOCC1 ?
< 1000 nM

What about Nc1nccc(Oc2ccc(NC(=O)c3ccnn(-c4ccc(F)cc4)c3=O)cc2F)c1C#CC(=O)N1CCNCC1 ?
< 100 nM

What about Nc1nccc(Oc2ccc(NC(=O)c3ccnn(-c4ccc(F)cc4)c3=O)cc2F)c1/C=C/C(=O)N1CCNCC1 ?
< 1000 nM

What about Nc1nccc(Oc2ccc(NC(=O)c3ccnn(-c4ccc(F)cc4)c3=O)cc2F)c1C#CC(=O)N1CCC(O)CC1 ?
< 100 nM

What about CN1CCN(CC#Cc2c(Oc3ccc(NC(=O)c4ccnn(-c5ccc(F)cc5)c4=O)cc3F)ccnc2N)CC1 ?
< 10 nM

What about CCCn1cc(-c2c(Oc3ccc(NC(=O)c4ccnn(-c5ccc(F)cc5)c4=O)cc3F)ccnc2N)cn1 ?
> 1000 nM

What about COCCN1CCN(C(C)(C)C#Cc2c(Oc3ccc(NC(=O)c4ccnn(-c5ccc(F)cc5)c4=O)cc3F)ccnc2N)CC1 ?
< 100 nM

---

TARGET OR SYSTEM: C-MET (Homo sapiens, UniProt P08581)
PROTOCOL DETAILS: Enzymatic kinase assay (ADP-GLO), C-MET
Format: biochemical
STUDY CONDITIONS: 10 μM ATP, poly (Glu4, Tyr1) substrate, 60 min room temperature, luminescence; read-out: Enzymatic assay IC50 (nM) C-MET
PROPERTY NAME: IC50

Examples with their reported IC50 follow.
| CHEMICAL STRING | IC50 |
| --- | --- |
| N#Cc1c(Oc2ccc(NC(=O)c3ccnn(-c4ccc(F)cc4)c3=O)cc2F)ccnc1N | < 10 nM |
| Nc1nccc(Oc2ccc(NC(=O)c3ccnn(-c4ccc(F)cc4)c3=O)cc2F)c1C#CCN1CCNCC1 | < 1000 nM |
| CC(C)(C#Cc1c(Oc2ccc(NC(=O)c3ccnn(-c4ccc(F)cc4)c3=O)cc2F)ccnc1N)N1CCNCC1 | < 100 nM |

Hi! What's the reported IC50 for Nc1nccc(Oc2ccc(NC(=O)c3ccnn(-c4ccc(F)cc4)c3=O)cc2F)c1C#CC(=O)N1CCOCC1 on C-MET (Homo sapiens, UniProt P08581)?
< 1000 nM

What about Nc1nccc(Oc2ccc(NC(=O)c3ccnn(-c4ccc(F)cc4)c3=O)cc2F)c1C#CCN1CCOCC1 ?
< 1000 nM

What about COCCN1CCC(CC#Cc2c(Oc3ccc(NC(=O)c4ccnn(-c5ccc(F)cc5)c4=O)cc3F)ccnc2N)CC1 ?
< 10 nM

What about Nc1nccc(Oc2ccc(NC(=O)c3ccnn(-c4ccc(F)cc4)c3=O)cc2F)c1C#CC1CCNCC1 ?
< 10 nM

---

TARGET OR SYSTEM: MER (Homo sapiens)
Sequence (Q12866 21-999): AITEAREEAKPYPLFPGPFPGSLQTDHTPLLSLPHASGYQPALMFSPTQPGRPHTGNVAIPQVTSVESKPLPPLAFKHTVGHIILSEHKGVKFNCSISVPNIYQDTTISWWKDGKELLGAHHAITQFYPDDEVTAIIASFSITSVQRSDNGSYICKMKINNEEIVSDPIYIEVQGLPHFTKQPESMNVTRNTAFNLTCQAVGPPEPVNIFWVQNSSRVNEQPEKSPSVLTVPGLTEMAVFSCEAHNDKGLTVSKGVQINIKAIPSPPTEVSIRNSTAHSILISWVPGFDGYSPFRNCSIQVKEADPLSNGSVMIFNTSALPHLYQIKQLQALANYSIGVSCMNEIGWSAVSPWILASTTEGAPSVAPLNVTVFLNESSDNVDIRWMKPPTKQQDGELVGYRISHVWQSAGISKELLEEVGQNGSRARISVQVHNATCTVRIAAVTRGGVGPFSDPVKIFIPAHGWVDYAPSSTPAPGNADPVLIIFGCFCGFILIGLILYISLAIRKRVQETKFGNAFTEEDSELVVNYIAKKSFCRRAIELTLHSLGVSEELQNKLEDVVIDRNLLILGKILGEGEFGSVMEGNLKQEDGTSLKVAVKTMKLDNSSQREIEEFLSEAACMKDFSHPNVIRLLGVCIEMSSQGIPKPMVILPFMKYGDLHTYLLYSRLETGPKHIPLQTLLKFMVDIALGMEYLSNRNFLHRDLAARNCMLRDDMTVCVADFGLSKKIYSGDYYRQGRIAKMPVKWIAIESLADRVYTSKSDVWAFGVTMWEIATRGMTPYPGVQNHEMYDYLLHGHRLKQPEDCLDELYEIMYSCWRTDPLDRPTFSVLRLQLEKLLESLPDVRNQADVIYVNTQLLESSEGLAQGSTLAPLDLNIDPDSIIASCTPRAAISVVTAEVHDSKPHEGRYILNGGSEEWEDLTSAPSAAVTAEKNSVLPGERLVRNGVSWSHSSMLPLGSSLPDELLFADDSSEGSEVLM
PROTOCOL DETAILS: Enzymatic kinase assay (ADP-GLO), MER
Format: biochemical
STUDY CONDITIONS: 10 μM ATP, poly (Glu4, Tyr1) substrate, 60 min room temperature, luminescence
PROPERTY NAME: IC50

| CHEMICAL STRING | IC50 |
| --- | --- |
| Nc1nccc(Oc2ccc(NC(=O)c3ccnn(-c4ccc(F)cc4)c3=O)cc2F)c1C#CC(=O)N1CCC(O)CC1 | < 100 nM |

// switching to the query compound
What does the record list as IC50 for CC(C)(C#Cc1c(Oc2ccc(NC(=O)c3ccnn(-c4ccc(F)cc4)c3=O)cc2F)ccnc1N)N1CCNCC1 ?
< 100 nM

---

TARGET OR SYSTEM: MER (Homo sapiens)
PROTOCOL DETAILS: Enzymatic kinase assay (ADP-GLO), MER
Type: biochemical
STUDY CONDITIONS: 10 μM ATP, poly (Glu4, Tyr1) substrate, 60 min room temperature, luminescence
Catalogue of IC50 readings, one per entry.

Examples with their reported IC50 follow.
| CHEMICAL STRING | IC50 |
| --- | --- |
| CC(C)(C#Cc1c(Oc2ccc(NC(=O)c3ccnn(-c4ccc(F)cc4)c3=O)cc2F)ccnc1N)N1CCOCC1 | < 100 nM |
| CC(C)N1CCC(CC#Cc2c(Oc3ccc(NC(=O)c4ccnn(-c5ccc(F)cc5)c4=O)cc3F)ccnc2N)CC1 | < 100 nM |
| CN1CCN(CC#Cc2c(Oc3ccc(NC(=O)c4ccnn(-c5ccc(F)cc5)c4=O)cc3F)ccnc2N)CC1 | < 10 nM |
| Nc1nccc(Oc2ccc(NC(=O)c3ccnn(-c4ccc(F)cc4)c3=O)cc2F)c1C#CCN1CCNCC1 | < 1000 nM |
| COCCN1CCN(C(C)(C)C#Cc2c(Oc3ccc(NC(=O)c4ccnn(-c5ccc(F)cc5)c4=O)cc3F)ccnc2N)CC1 | < 100 nM |

What does the record list as IC50 for Nc1nccc(Oc2ccc(NC(=O)c3ccnn(-c4ccc(F)cc4)c3=O)cc2F)c1C#CCCN1CCOCC1 ?
< 1000 nM

What about COCCN1CCC(CC#Cc2c(Oc3ccc(NC(=O)c4ccnn(-c5ccc(F)cc5)c4=O)cc3F)ccnc2N)CC1 ?
< 100 nM
